Test target: T1, FZD10 CRD (Homo sapiens, UniProt Q9ULW2)
T1 construct: 30-156; GPI anchor signal (C); expressed in transfected cells; host or cells: CHO cells, lentiviral pLenti-puro
T1 sequence (Q9ULW2 30-156): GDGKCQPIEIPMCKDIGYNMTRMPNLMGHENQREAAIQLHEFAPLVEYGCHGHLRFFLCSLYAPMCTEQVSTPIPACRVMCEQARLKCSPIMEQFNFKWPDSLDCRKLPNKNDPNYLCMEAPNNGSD
Method description: Immunofluorescence of anti-FZD5 Fab binding to CHO cells overexpressing Frizzled CRD
Design: key: −: no binding; +: very weak binder; ++: weak binder; +++: good binder; ++++: very good binder
Procedure: Plasmids: pLCKO lentiviral vector used for knockout (TKO) library construction and expression of individual gRNAs was constructed as described previously (Hart et al., 2015). Briefly, single guide RNA (sgRNA) scaffold was amplified from px330 (Addgene 42230) and cloned into pLKO.TRC005 lentiviral vector (Broad Institute, Cambridge, Mass.) using AgeI/EcoRI restriction sites. BfuAI sites were added at the 5′ end of the sgRNA scaffold for cloning the TKO library or individual gRNA target sequences. […]
Measured endpoint: Immunofluorescence binding, Frizzled CRD overexpressed on CHO cells: FZD10

{"columns": ["Molecule", "Result"],
 "data": [
  ["Fab-2907: anti-FZD5 Fab with antibody variable region Fv-2907; CDR SEQ ID NOs: 35, 36, 46, 85, 122, 159 (antibody, V domains shown) VH: EVQLVESGGGLVQPGGSLRLSCAASGFNIYSSYMHWVRQAPGKGLEWVASISSYSGSTYYADSVKGRFTISADTSKNTAYLQMNSLRAEDTAVYYCARSSWGAYIVSYGFDYWGQGTLVTVSS VL: DIQMTQSPSSLSASVGDRVTITCRASQSVSSAVAWYQQKPGKAPKLLIYSASSLYSGVPSRFSGSRSGTDFTLTISSLQPEDFATYYCQQVGYWWGLITFGQGTKVEIK", "−"],
  ["Fab-2915: anti-FZD5 Fab with antibody variable region Fv-2915; CDR SEQ ID NOs: 35, 36, 54, 93, 130, 166 (antibody, V domains shown) VH: EVQLVESGGGLVQPGGSLRLSCAASGFNIYYYSMHWVRQAPGKGLEWVASIYSSYGYTSYADSVKGRFTISADTSKNTAYLQMNSLRAEDTAVYYCARGYHYYPYYSGLDYWGQGTLVTVSS VL: DIQMTQSPSSLSASVGDRVTITCRASQSVSSAVAWYQQKPGKAPKLLIYSASSLYSGVPSRFSGSRSGTDFTLTISSLQPEDFATYYCQQAYYHSLITFGQGTKVEIK", "−"],
  ["Fab-2928: anti-FZD5 Fab with antibody variable region Fv-2928; CDR SEQ ID NOs: 35, 36, 67, 105, 143, 175 (antibody, V domains shown) VH: EVQLVESGGGLVQPGGSLRLSCAASGFNISYSSIHWVRQAPGKGLEWVASIYPSYSSTYYADSVKGRFTISADTSKNTAYLQMNSLRAEDTAVYYCARYYAMDYWGQGTLVTVSS VL: DIQMTQSPSSLSASVGDRVTITCRASQSVSSAVAWYQQKPGKAPKLLIYSASSLYSGVPSRFSGSRSGTDFTLTISSLQPEDFATYYCQQAFYYPITFGQGTKVEIK", "−"],
  ["Fab-2906: anti-FZD5 Fab with antibody variable region Fv-2906; CDR SEQ ID NOs: 35, 36, 45, 84, 121, 158 (antibody, V domains shown) VH: EVQLVESGGGLVQPGGSLRLSCAASGFNFSSSSIHWVRQAPGKGLEWVAYISSSYGYTYYADSVKGRFTISADTSKNTAYLQMNSLRAEDTAVYYCARTVRGSKKPYFSGWAMDYWGQGTLVTVSS VL: DIQMTQSPSSLSASVGDRVTITCRASQSVSSAVAWYQQKPGKAPKLLIYSASSLYSGVPSRFSGSRSGTDFTLTISSLQPEDFATYYCQQWSWGFLITFGQGTKVEIK", "+++"]
]}
